Record form. Attribute: IC50. Fill in for each entry.
# Test system: TGF-β-stimulated SMAD3 phosphorylation in BEAS-2B cells
# assay.remarks: Cellular ALK5 potency assay, inhibition of TGF-β stimulated pSMAD3 formation in BEAS-2B cells
# Type: cell-based
# measurement.conditions: Homo sapiens, pSMAD3, TGF-β 10 ng/mL, read-out: BEAS2B pIC50 (converted)

[[record]]
compound = "COC(=O)C1CCCN(Cc2ccc(Nc3nccc(Nc4ccnc(-c5cccc(C)n5)n4)n3)cc2)C1 (stereo not drawn)"
value_observed = "25.1 to 158 nM"


State recorded IC50 for all listed compounds.
1. Cc1cccc(-c2nccc(Nc3ccnc(Nc4ccc(NC(=O)C5CCN(C)CC5)cc4)n3)n2)n1
2. Cc1cccc(-c2nccc(Nc3ccnc(Nc4ccc(N5CCC(N(C)Cc6ccccc6)CC5)cc4)n3)n2)n1
3. Fc1ccc(Cl)cc1-c1nccc(Nc2ccnc(Nc3ccc(CN4CCOCC4)cc3)n2)n1
4. Cc1cccc(-c2nccc(Nc3ccnc(Nc4csc(C(=O)OC[C@@H]5CCCN5)c4)n3)n2)n1
5. Cc1cccc(-c2nccc(Nc3ccnc(Nc4ccc(C(=O)OC[C@@H]5CCCCN5)nc4)n3)n2)n1
6. Cc1cccc(-c2nccc(Nc3ccnc(Nc4ccc(NCC5(CO)CNC5)cc4)n3)n2)n1

1: 25.1 to 158 nM; 2: 25.1 to 158 nM; 3: 25.1 to 158 nM; 4: 25.1 to 158 nM; 5: 25.1 to 158 nM; 6: 25.1 to 158 nM

State recorded IC50 for all listed compounds.
1. Cc1cccc(-c2nccc(Nc3ccnc(Nc4ccc(C)c(CN5C6CCC5CNC6)c4)n3)n2)n1
2. CN(C)C1CCN(c2ccc(Nc3nccc(Nc4ccnc(-c5cc(Cl)ccc5F)n4)n3)cc2)CC1

25.1 to 158 nM
25.1 to 158 nM

---

# Tested on: TGF-β-stimulated SMAD3 phosphorylation in BEAS-2B cells
# assay.remarks: Cellular ALK5 potency assay, inhibition of TGF-β stimulated pSMAD3 formation in BEAS-2B cells
# Type: cell-based
# measurement.conditions: Homo sapiens, pSMAD3, TGF-β 10 ng/mL, read-out: BEAS2B pIC50 (converted)
# Description: The potency of compounds of the present disclosure for inhibition of TGF-β-stimulated SMAD3 phosphorylation was measured in BEAS-2B cells, a human lung epithelial cell line. […] For the assay, BEAS-2B cells were seeded at 7,500 cells/well (25 μL/well) in a 384-well plate and cultured overnight. […] AlphaLISA Acceptor and Detector beads (PerkinElmer) were added 2 hours apart, then incubated overnight to be read the next day. […] Data are expressed as pIC50 (negative decadic logarithm IC50) values.
Record form. Attribute: IC50. Fill in for each entry.

Below: 2 compounds and their reported IC50.
[[record]]
compound = "COC(=O)C1CCN(c2ccc(Nc3nccc(Nc4ccnc(-c5cccc(C)n5)n4)n3)cc2)CC1"
quantity_kind = "IC50"
value_observed = "25.1 to 158 nM"

[[record]]
compound = "Cc1cccc(-c2nccc(Nc3ccnc(Nc4nc(C(=O)OC[C@@H]5CCCNC5)cs4)n3)n2)n1"
quantity_kind = "IC50"
value_observed = "200 to 1260 nM"


State recorded IC50 for all listed compounds.
1. Cc1ccc(Nc2nccc(Nc3ccnc(-c4cccc(C)n4)n3)n2)cc1
2. Cc1cccc(-c2nc(Nc3ccnc(Nc4ccc(C(=O)NC5CCNC5)cc4)n3)c3cccn3n2)n1 (stereo not drawn)

25.1 to 158 nM
25.1 to 158 nM

---

# system.under.test: recombinant human ALK5 (TGF-βR1) protein (Homo sapiens)
# Sequence (P36897 34-503): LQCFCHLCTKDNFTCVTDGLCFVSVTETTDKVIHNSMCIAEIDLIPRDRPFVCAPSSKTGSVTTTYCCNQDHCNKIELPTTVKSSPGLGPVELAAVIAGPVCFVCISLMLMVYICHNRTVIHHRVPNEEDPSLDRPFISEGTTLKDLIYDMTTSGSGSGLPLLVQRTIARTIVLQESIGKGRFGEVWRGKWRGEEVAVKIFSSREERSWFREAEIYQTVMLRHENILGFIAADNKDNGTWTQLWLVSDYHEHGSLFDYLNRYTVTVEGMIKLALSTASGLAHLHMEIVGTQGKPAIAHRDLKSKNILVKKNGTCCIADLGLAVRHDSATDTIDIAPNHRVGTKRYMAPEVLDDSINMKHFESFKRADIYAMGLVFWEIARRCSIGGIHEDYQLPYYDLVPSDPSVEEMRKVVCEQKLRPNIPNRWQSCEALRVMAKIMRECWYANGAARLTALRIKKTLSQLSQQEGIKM
# assay.remarks: Biochemical ALK5 (TGF-βR1) assay to measure pKi (LANCE Ultra ULight kinase assay)
# measurement.conditions: apparent pKi, converted from pIC50 by Cheng-Prusoff
quantity.kind: Ki

Below: 3 molecules and their reported Ki.
[[record]]
molecule = "Cc1cccc(-c2nccc(Nc3ccnc(Nc4cccc(C(=O)OCC5CNC5)c4)n3)n2)n1"
quantity_kind = "Ki"
value_observed = "398 to 3160 pM"

[[record]]
molecule = "Cc1cccc(-c2nccc(Nc3ccnc(Nc4cccc(C(=O)OCCN5CCNCC5)c4)n3)n2)n1"
quantity_kind = "Ki"
value_observed = "398 to 3160 pM"

[[record]]
molecule = "Cc1cccc(-c2nccc(Nc3ccnc(Nc4ccc(N5CCNCC5)c(CC(=O)OC5CNC5)c4)n3)n2)n1"
quantity_kind = "Ki"
value_observed = "39.8 to 316 pM"


State recorded Ki for all listed molecules.
1. Cc1cccc(-c2nccc(Nc3ccnc(Nc4ccc(CN5CC(C(=O)O)C5)cc4)n3)n2)n1
2. Cc1cccc(-c2nccc(Nc3ccnc(Nc4ncc(C(=O)OC[C@H]5CCCCN5)s4)n3)n2)n1
3. Cc1cccc(-c2nccc(Nc3ccnc(Nc4ccc(C(=O)N5CCN(C)CC5)cc4)n3)n2)n1
4. Cc1cccc(-c2nccc(Nc3ccnc(Nc4ccc(C5=CCC(NC(C)C)CC5)cc4)n3)n2)n1 (stereo not shown)

1: 39.8 to 316 pM; 2: 3980 to 31600 pM; 3: 39.8 to 316 pM; 4: 39.8 to 316 pM

---

# System: TGF-β-stimulated SMAD3 phosphorylation in BEAS-2B cells
# assay.remarks: Cellular ALK5 potency assay, inhibition of TGF-β stimulated pSMAD3 formation in BEAS-2B cells
# Type: cell-based
# measurement.conditions: Homo sapiens, pSMAD3, TGF-β 10 ng/mL, read-out: BEAS2B pIC50 (converted)
Record form. Attribute: IC50. Fill in for each entry.

[[record]]
compound = "Cc1cccc(-c2nc(Nc3ccnc(Nc4csc(C(=O)O)c4)n3)c3cccn3n2)n1"
quantity_kind = "IC50"
value_observed = "200 to 1260 nM"

[[record]]
compound = "Cc1nc(-c2nccc(Nc3ccnc(Nc4ccc(N5CCOCC5)cc4)n3)n2)ccc1F"
quantity_kind = "IC50"
value_observed = "25.1 to 158 nM"

[[record]]
compound = "Cc1cccc(-c2nccc(Nc3ccnc(Nc4csc(N)c4)n3)n2)n1"
quantity_kind = "IC50"
value_observed = "25.1 to 158 nM"

[[record]]
compound = "Cc1cccc(-c2nccc(Nc3ccnc(Nc4csc(C(=O)O)n4)n3)n2)n1"
quantity_kind = "IC50"
value_observed = "200 to 1260 nM"

[[record]]
compound = "Cc1cccc(-c2nccc(Nc3ccnc(Nc4ccc(N(C)C(=O)C5CCNCC5)cc4)n3)n2)n1"
quantity_kind = "IC50"
value_observed = "200 to 1260 nM"


State recorded IC50 for all listed compounds.
1. Cc1cccc(-c2nccc(Nc3ccnc(Nc4nc(C(=O)NCC5CNC5)cs4)n3)n2)n1
2. Cc1cccc(-c2nccc(Nc3ccnc(Nc4ccc(S(=O)(=O)N(C)CCN)cc4)n3)n2)n1

1. 25.1 to 158 nM
2. 25.1 to 158 nM

State recorded IC50 for all listed compounds.
1. Cc1cccc(-c2nccc(Nc3ccnc(Nc4ccc(-c5cn(C)nn5)cc4)n3)n2)n1
2. Cc1cccc(-c2nccc(Nc3ccnc(Nc4ccc(NCCN5CCN(C(C)C)CC5)cc4)n3)n2)n1
3. COC1CN(Cc2ccc(Nc3nccc(Nc4ccnc(-c5cccc(C)n5)n4)n3)cc2)C1
4. Cc1cccc(-c2nccc(Nc3ccnc(Nc4ccc(C5=CCC(NC(C)C)CC5)cc4)n3)n2)n1 (stereo not drawn)
5. Cc1cccc(-c2nccc(Nc3ccnc(Nc4ccc(F)c(CN5C6CCC5CNC6)c4)n3)n2)n1
6. COC(=O)C1CN(CCNc2ccc(Nc3nccc(Nc4ccnc(-c5cccc(C)n5)n4)n3)cc2)CCN1C (stereo not drawn)
7. Fc1ccc(Cl)cc1-c1nccc(Nc2ccnc(Nc3ccc(NCCN4CCOCC4)cc3)n2)n1

≤ 20 nM
25.1 to 158 nM
25.1 to 158 nM
200 to 1260 nM
25.1 to 158 nM
25.1 to 158 nM
25.1 to 158 nM

State recorded IC50 for all listed compounds.
1. Cc1cccc(-c2nccc(Nc3ccnc(Nc4ccc(-c5cnn(CCN(C)C)c5)cc4)n3)n2)n1
2. Cc1cccc(-c2nccc(Nc3ccnc(Nc4cccc(S(=O)(=O)N5CCNCC5)c4)n3)n2)n1
3. Cc1cccc(-c2nccc(Nc3ccnc(Nc4ccc(CN5CCCC(C(=O)NC6CNC6)C5)cc4)n3)n2)n1 (stereo not drawn)
4. Cc1cccc(-c2nccc(Nc3ccnc(Nc4ccc(C(=O)O[C@@H]5CC[C@@H](C)NC5)nc4)n3)n2)n1
5. COC(=O)[C@@H]1CN(Cc2ccc(Nc3nccc(Nc4ccnc(-c5cccc(C)n5)n4)n3)cc2)CCN1
6. Cc1cccc(-c2nccc(Nc3ccnc(Nc4ccc(N5CCN[C@H](C(=O)O)C5)cc4)n3)n2)n1
7. CCC(C)OC(=O)C1CN(c2ccc(Nc3nccc(Nc4ccnc(-c5cccc(C)n5)n4)n3)cc2)CCN1 (racemic)
8. Cc1cccc(-c2nccc(Nc3ccnc(Nc4ccc(CN5CCCC(C(=O)NCC6CNC6)C5)cc4)n3)n2)n1 (stereo not drawn)

25.1 to 158 nM
25.1 to 158 nM
25.1 to 158 nM
25.1 to 158 nM
≤ 20 nM
200 to 1260 nM
25.1 to 158 nM
25.1 to 158 nM

State recorded IC50 for all listed compounds.
1. Cc1cccc(-c2nccc(Nc3ccnc(Nc4ccc(N5CCC(NCc6ccccc6)CC5)cc4)n3)n2)n1
2. Cc1cccc(-c2nccc(Nc3ccnc(Nc4nc(CN5CCC[C@@H](C(=O)O[C@H]6CCN(C)C6)C5)cs4)n3)n2)n1
3. Cc1cccc(-c2nccc(Nc3ccnc(Nc4cccc(NC(=O)NCC5CNC5)c4)n3)n2)n1
4. Cc1cccc(-c2nccc(Nc3ccnc(Nc4ccc(CN5CCCC(C(=O)N6CCNCC6)C5)cc4)n3)n2)n1 (stereo not drawn)

1: 200 to 1260 nM; 2: 25.1 to 158 nM; 3: ≤ 20 nM; 4: 25.1 to 158 nM

State recorded IC50 for all listed compounds.
1. Cc1cccc(-c2nccc(Nc3ccnc(Nc4csc(C(=O)OC[C@@H]5CCC[C@@H](N)C5)c4)n3)n2)n1
2. Cc1cccc(-c2nccc(Nc3ccnc(Nc4ccc(N5CCNCC5)c(CC(=O)OCC5CNC5)c4)n3)n2)n1

1. 25.1 to 158 nM
2. 200 to 1260 nM

State recorded IC50 for all listed compounds.
1. COC(=O)C1CN(CCNc2ccc(Nc3nccc(Nc4ccnc(-c5cccc(C)n5)n4)n3)cc2)CCN1 (stereo not drawn)
2. Cc1cccc(-c2nccc(Nc3ccnc(Nc4ccc(CN5CCC[C@H](C(=O)O[C@@H]6CCN(C)C6)C5)cc4)n3)n2)n1

1: 25.1 to 158 nM; 2: 25.1 to 158 nM
